- System: RCH-ACV;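 further: ALL cell lines in 384-well plates, five doses spanning 10,000-fold, each plate scaled between vehicle and 100 µmol/L benzalkonium chloride controls, sDSS an adapted area-under-curve metric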
- method-notes: selective drug sensitivity score (sDSS, relative to normal bone marrow) (sDSS (score)); higher = more potent and effective on the cell line relative to normal bone marrow cells
- study-conditions: 72 h
The compounds listed here are annotated with their selective drug sensitivity score.
Would you mind answering with just the numeric figure?

For orientation, consider the following solved cases.
compound	value-kind	recorded-number
Cc1ccc(C(=O)Nc2ccc(CN3CCN(C)CC3)c(C(F)(F)F)c2)cc1C#Cc1cnc2cccnn12 [Ponatinib] (top concentration 1000 nM)	selective drug sensitivity score	14.8
COc1cc2nccc(Oc3ccc(NC(=O)Nc4cc(C)on4)c(Cl)c3)c2cc1OC [Tivozanib] (top concentration 10000 nM)	selective drug sensitivity score	10.9
CC[C@H](NC(=O)[C@H](C)NC)C(=O)N1C[C@@H](O)C[C@H]1Cc1c(-c2[nH]c3cc(F)ccc3c2C[C@@H]2C[C@H](O)CN2C(=O)[C@H](CC)NC(=O)[C@H](C)NC)[nH]c2cc(F)ccc12 [Birinapant] (top concentration 1000 nM)	selective drug sensitivity score	3.1
CCNCCS(=O)(=O)NC[C@@]1(c2ccccc2)SC(NC(=O)C(C)(C)C)=NN1C(=O)C(C)(C)C [Litronesib] (top concentration 1000 nM)	selective drug sensitivity score	22.1
Cc1[nH]c2ccccc2c1CCNCc1ccc(/C=C/C(=O)NO)cc1 [Panobinostat] (top concentration 1000 nM)	selective drug sensitivity score	14.1

Now for a further compound.
Endpoint output: selective drug sensitivity score of CNC(=O)c1ccc(N2C(=S)N(c3ccc(C#N)c(C(F)(F)F)c3)C(=O)C2(C)C)cc1F [Enzalutamide] (top concentration 10000 nM) . Value?
-0.72
